test system: HcPMT1+2-complemented pem1Δ/pem2Δ S. cerevisiae; experiment: Growth inhibition of complemented yeast; format: cell-based, Saccharomyces cerevisiae; settings: Saccharomyces cerevisiae, 72 h, read-out: Mean growth inhibition EC50 ± SEM on complemented yeast, HcPMT1+2
# maps each entry to its pEC50
Friendly reminder that pEC50 comes from taking -log10 of the concentration in mol/L.

# Compound, Measured on, pEC50
records = [
    ("O=c1c(O)cccc2cc(O)c(O)c(O)c12 [NSC35676, purpurogallin]", "HcPMT1+2-complemented pem1Δ/pem2Δ S. cerevisiae", 5.26),
]

// query pEC50 value for entry CO[C@@]12[C@H](COC(N)=O)C3=C(C(=O)C(C)=C(N)C3=O)N1C[C@H]1[C@@H]2N1C (some centres unmarked) [NSC56410]
5.83
